# reported IC50; entries follow
- assayedSystem: Mu-type opioid receptor (Homo sapiens, UniProt P35372)
- Sequence (P35372 whole entry): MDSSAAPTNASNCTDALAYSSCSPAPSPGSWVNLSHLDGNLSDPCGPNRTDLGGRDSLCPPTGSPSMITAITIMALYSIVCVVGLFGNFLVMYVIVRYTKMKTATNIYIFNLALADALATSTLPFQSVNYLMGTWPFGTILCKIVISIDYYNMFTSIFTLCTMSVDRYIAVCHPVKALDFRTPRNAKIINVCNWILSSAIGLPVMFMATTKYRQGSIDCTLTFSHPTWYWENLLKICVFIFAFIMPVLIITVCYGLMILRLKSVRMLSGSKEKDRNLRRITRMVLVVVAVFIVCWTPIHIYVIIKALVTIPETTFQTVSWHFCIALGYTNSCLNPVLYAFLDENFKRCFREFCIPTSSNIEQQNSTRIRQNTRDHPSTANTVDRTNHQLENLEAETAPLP
- Assay type: functional, cell-based, HEK-293T
- experimentalContext: read-out: pIC50 (converted)
- Description: Antagonist activity at recombinant human MOR expressed in HEK293T cells assessed as reduction in DAMGO-induced inhibition of forskolin-stimulated cAMP level preincubated for 15 to 20 mins followed by DAMGO and forskolin addition by GloSensor assay

Completed entries (count: 3):
{"columns": ["compound", "assayedSystem", "IC50"],
 "data": [
  ["CC1(c2cccc(O)c2)CCN(C/C(=C\\c2ccccc2)C(=O)O)CC1", "Mu-type opioid receptor (Homo sapiens, UniProt P35372)", "18.6 to 76.6 nM"],
  ["CCC(C)C(NC(=O)/C(=C/c1ccccc1)CN1CC[C@@](C)(c2cccc(O)c2)[C@@H](C)C1)C(=O)O (stereo not given in full)", "Mu-type opioid receptor (Homo sapiens, UniProt P35372)", "1600 to 1620 nM"],
  ["CC(C)[C@H](NC(=O)/C(=C/c1ccccc1)CN1CC[C@@](C)(c2cccc(O)c2)[C@@H](C)C1)C(=O)O", "Mu-type opioid receptor (Homo sapiens, UniProt P35372)", "658 to 661 nM"]
]}

*Q* State its IC50 for this compound: CC(C)C[C@H](NC(=O)/C(=C/c1ccccc1)CN1CC[C@@](C)(c2cccc(O)c2)[C@@H](C)C1)C(=O)O
*A* 782 to 794 nM

*Q* State its IC50 for this compound: CCCC(NC(=O)/C(=C/c1ccccc1)CN1CC[C@@](C)(c2cccc(O)c2)[C@@H](C)C1)C(=O)O (stereo not given in full)
*A* 2320 to 2340 nM

* * *

- assayedSystem: Kappa-type opioid receptor (Homo sapiens)
- Sequence (P41145 whole entry): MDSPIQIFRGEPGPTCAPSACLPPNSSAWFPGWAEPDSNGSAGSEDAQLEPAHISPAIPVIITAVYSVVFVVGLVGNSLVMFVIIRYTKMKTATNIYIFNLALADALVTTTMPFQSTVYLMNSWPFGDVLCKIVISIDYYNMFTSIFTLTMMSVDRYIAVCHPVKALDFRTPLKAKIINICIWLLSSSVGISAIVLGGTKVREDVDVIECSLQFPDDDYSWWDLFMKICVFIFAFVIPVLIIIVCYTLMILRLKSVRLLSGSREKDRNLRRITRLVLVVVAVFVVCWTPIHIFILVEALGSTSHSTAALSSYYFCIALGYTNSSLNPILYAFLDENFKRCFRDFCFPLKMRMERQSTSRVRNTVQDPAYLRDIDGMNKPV
- methodSummary: Agonist activity at recombinant human KOR expressed in HEK293T cells assessed as inhibition of forskolin-stimulated cAMP level preincubated for 15 to 20 mins followed by forskolin addition by GloSensor assay
- Type: functional, cell-based, HEK-293T
- experimentalContext: read-out: IC50
measuredParameter: IC50 (nM)
Respond numerically; units are nM and should not be typed.

Completed entries (count: 2):
{"columns": ["molecule", "IC50 (nM)"],
 "data": [
  ["CC(C)[C@H](NC(=O)/C(=C/c1ccccc1)CN1CCN(c2ccc(Cl)cc2)CC1)C(=O)O", 910],
  ["CCOC(=O)C(NC(=O)/C(=C/c1ccccc1)CN1CCN(c2nsc3ccccc23)CC1)C(C)C (stereo not drawn)", 1800]
]}

*Q* State its IC50 for this molecule: O=C(O)/C(=C/c1ccccc1)CN1CCN(c2cccc(Cl)c2Cl)CC1
*A* 800

* * *

- assayedSystem: UniProtKB P35372
- methodSummary: Agonist activity at recombinant human MOR expressed in HEK293T cells assessed as inhibition of forskolin-stimulated cAMP level at 10 uM preincubated for 15 to 20 mins followed by forskolin addition by GloSensor assay relative to control
- Type: functional, cell-based
- experimentalContext: HEK-293T
Activity calls are given as the source filed them. The calls are words filed in the database; no cut-off is given here.
Give one outcome, nothing more. List: true (1) = active, false (0) = inactive

{"columns": ["molecule", "qualitativeLabel"],
 "data": [
  ["CCCC(NC(=O)/C(=C/c1ccccc1)CN1CCN(c2ccc(O)cc2)CC1)C(=O)O (centres undefined)", "false (0)"],
  ["COc1ccccc1N1CCN(CC(Cc2ccccc2)C(=O)NCC(=O)O)CC1 (centres undefined)", "false (0)"],
  ["COc1ccccc1N1CCN(CCC(C(=O)N(C)C)(c2ccccc2)c2ccccc2)CC1", "true (1)"]
]}

Then this molecule:
*Q* What call does the record list for CC(C)C[C@H](NC(=O)/C(=C/c1ccccc1)CN1CCN(c2ccc(O)cc2)CC1)C(=O)O ?
*A* false (0)
